System: Echinochloa crus-galli (ECHCG)
procedure.summary: Pre-emergence herbicidal activity, glasshouse pot test
Type: in vivo
experimental.context: Echinochloa crus-galli, 312 h; pre-emergence, Rate 250 g/ha, evaluated after 13 days; read-out: Pre-emergence activity ECHCG (100=total damage to plant; 0=no damage to plant)
measured.endpoint: pest or weed control at 250 g/ha (%)
Give just the numeric value; % need not be written.

// known answers, use as guide
| compound | recorded.number |
| --- | --- |
| CC1(C)OC(C)(C)C(O)=C(c2cc(Oc3ccc(OC(F)(F)F)cc3)ccc2C2CC2)C1=O | 100 |
| CC1(C)OC(C)(C)C(O)=C(c2cc(Oc3ccc(Br)cc3)ccc2C2CC2)C1=O | 100 |
| CC1(C)OC(C)(C)C(O)=C(c2cc(Oc3ccc(Cl)cc3)ccc2C2CC2)C1=O | 100 |
| CC1(C)OC(C)(C)C(O)=C(c2cc(Oc3ccc(Cl)c(F)c3)ccc2C2CC2)C1=O | 100 |
| COc1ccc2nc(Oc3ccc(C4CC4)c(C4=C(O)C(C)(C)OC(C)(C)C4=O)c3)sc2c1 | 90 |
| CC1(C)OC(C)(C)C(O)=C(c2cc(Oc3cc(C#N)ccc3F)ccc2C2CC2)C1=O | 90 |
| CC1(C)OC(C)(C)C(O)=C(c2cc(Oc3ccc(Cl)cc3F)ccc2C2CC2)C1=O | 100 |

Let us examine a further case.
Challenge: I'd like to know its pest or weed control at 250 g/ha. The compound in question is "CC1(C)OC(C)(C)C(O)=C(c2cc(Oc3ncc(Cl)cc3C(F)(F)F)ccc2C2CC2)C1=O"
Response given: 100

Reference source for all entries: patent US8865623B2
